# System: MT4
# TEST DESCRIPTION: Cytotoxicity against human MT4 cells assessed as inhibition of cell growth by measuring ATP by CellTiter-Glo luminescent cell viability assay
# Type: toxicity, cell-based
Measured IC50, listed per entry.

COMPOUND STRUCTURE	IC50
C=C(C)[C@@]12OC34CCC/C=C\CCCC[C@H](CCC)[C@@H]5[C@@H]6[C@]7(O[C@]5(C)OC7=O)[C@H](O)[C@@]5(CO)O[C@H]5[C@@H]([C@H]1O3)[C@]6(O4)[C@H](COC(=O)c1ccccc1)[C@H]2OC(C)=O	> 32 nM
C=C(C)[C@@]12OC34CCC/C=C\CCCC[C@H](CCC)[C@H]5[C@H](C)C(=O)[C@@]6(O)[C@H](O)[C@@]7(CO)O[C@H]7[C@@H]([C@H]1O3)[C@](O4)([C@H](COC(=O)C(C)C)[C@H]2OC(C)=O)[C@H]56	21.3 nM
C=C(C)[C@@]12OC34CCC/C=C\CCCC[C@H](CCC)[C@H]5[C@H](C)C(=O)[C@@]6(O)[C@H](O)[C@@]7(CO)O[C@H]7[C@@H]([C@H]1O3)[C@](O4)([C@H](C)[C@H]2OC(C)=O)[C@H]56	> 32 nM
C=C(C)[C@@]12OC34CCC/C=C\CCCC[C@H](CCC)[C@@H]5[C@@H]6[C@]7(O[C@]5(C)OC7=O)[C@H](O)[C@@]5(CO)O[C@H]5[C@@H]([C@H]1O3)[C@]6(O4)[C@H](COC(=O)C(C)C)[C@H]2OC(C)=O	> 32 nM
C=C(C)[C@]12C[C@@H](COC(=O)c3ccccc3)[C@@]34OC5(O[C@@H]1[C@@H]3[C@@H]1O[C@]1(CO)[C@@H](O)[C@@]1(O)[C@H]4[C@H]([C@H](C)[C@@H]1OC(=O)c1ccccc1)[C@H](C)CCCCCC[C@H]5O)O2	> 32 nM
C=C(C)[C@@]12OC34CCC/C=C\CCCC[C@H](CCC)[C@@H]5[C@@H]6[C@]7(O[C@]5(C)OC7=O)[C@H](O)[C@@]5(CO)O[C@H]5[C@@H]([C@H]1O3)[C@]6(O4)[C@H](C)[C@H]2OC(C)=O	> 32 nM

Entry source: ChEMBL document CHEMBL5137129
